All values here come from paper doi:10.1101/2024.09.10.612331.

target: ALX4 V241R (mouse cDNA (human protein sequence …, UniProt O35137 158-291, V229R)); assay: ITC
Sequence (O35137 158-291 V229R): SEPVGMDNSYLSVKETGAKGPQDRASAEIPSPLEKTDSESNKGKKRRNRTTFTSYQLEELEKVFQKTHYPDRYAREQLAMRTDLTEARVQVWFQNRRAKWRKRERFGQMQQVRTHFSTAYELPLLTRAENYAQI
outcome.measure: pKd
One number for each entry, as −log10 of the molar value.

The value of pKd measured for the binder 14-mer monomer site ITC duplex (dsDNA) DNA 1: CGCTAATTAGCTCG DNA 2: CGAGCTAATTAGCG turned out to be 8.13
